- Test system: CYP1A2
- assay_summary: CYP1A2 enzyme induction assay in cryopreserved primary human hepatocytes (PHH);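 also: code 1 means positive inducer and 0 means non-inducer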
- Assay type: in vitro ADME
- condition_parameters: PHH; Lab 2; batch 0 6 A
The following compounds are listed with their measured Assigned classification CYP1A2 values.
Quick one: just the number, no unit, thanks!

Before answering, review these 2 worked examples.
• NC(=O)N1c2ccccc2C=Cc2ccccc21 [Carbamazepine] = 0
• CO[C@H]1/C=C/O[C@@]2(C)Oc3c(C)c(O)c4c(c3C2=O)C2=NC3(CCN(CC(C)C)CC3)NC2=C(NC(=O)/C(C)=C\C=C\[C@H](C)[C@H](O)[C@@H](C)[C@@H](O)[C@@H](C)[C@H](OC(C)=O)[C@@H]1C)C4=O [Rifabutin] = 0

# ---- query compound ----
Prompt: Give the measured Assigned classification CYP1A2 for COc1ccc2[nH]c([S+]([O-])Cc3ncc(C)c(OC)c3C)nc2c1 (stereo not drawn) [Omeprazole]
Response: 1

----------
The following compounds are listed with their measured Assigned classification CYP2B6 values.
- Test system: CYP2B6
- assay_summary: CYP2B6 enzyme induction assay in cryopreserved primary human hepatocytes (PHH);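 also: code 1 means positive inducer and 0 means non-inducer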
- Assay type: in vitro ADME
- condition_parameters: PHH; Lab 2; batch 0 6 A
Counter-ions that a name gives are not always drawn.
Quick one: just the number, no unit, thanks!

Before answering, review these 4 worked examples.
* O=C1NC(=O)C(c2ccccc2)(c2ccccc2)N1 [Phenytoin sodium] | 1
* CO[C@H]1/C=C/O[C@@]2(C)Oc3c(C)c(O)c4c(O)c(c(/C=N/N5CCN(C)CC5)c(O)c4c3C2=O)NC(=O)/C(C)=C\C=C\[C@H](C)[C@H](O)[C@@H](C)[C@@H](O)[C@@H](C)[C@H](OC(C)=O)[C@@H]1C | 1
* CC(C)NCC(O)c1ccc(NS(C)(=O)=O)cc1 (centres unmarked) [Sotalol hydrochloride] | 0
* NC(=O)N1c2ccccc2C=Cc2ccccc21 [Carbamazepine] | 1

# ---- query compound ----
Prompt: Give the measured Assigned classification CYP2B6 for COc1ccc2[nH]c([S+]([O-])Cc3ncc(C)c(OC)c3C)nc2c1 (centres unmarked)
Response: 1

----------
- Tested on: CYP2B6
- assay_summary: CYP2B6 enzyme induction assay in cryopreserved HepaRG cells (bupropion probe, LC/MS); also: key: 1=Positive=inducer; 0=Negative=non-inducer
- Format: in vitro ADME, human
- condition_parameters: HepaRG; Lab 1; batch 35
Counter-ions that a name gives are not always drawn.
The following molecules are listed with their measured Assigned classification CYP2B6 values.

Before answering, review these 2 worked examples.
• NC(=O)N1c2ccccc2C=Cc2ccccc21 [Carbamazepine] = 1
• COc1ccccc1Oc1c(NS(=O)(=O)c2ccc(C(C)(C)C)cc2)nc(-c2ncccn2)nc1OCCO [Bosentan hydrate] = 1

Prompt: Give the measured Assigned classification CYP2B6 for CO[C@H]1/C=C/O[C@@]2(C)Oc3c(C)c(O)c4c(O)c(c(/C=N/N5CCN(C)CC5)c(O)c4c3C2=O)NC(=O)/C(C)=C\C=C\[C@H](C)[C@H](O)[C@@H](C)[C@@H](O)[C@@H](C)[C@H](OC(C)=O)[C@@H]1C
Response: 1

Prompt: Give the measured Assigned classification CYP2B6 for COCCc1ccc(OCC(O)CNC(C)C)cc1 (centres unmarked)
Response: 0

Prompt: Give the measured Assigned classification CYP2B6 for CC(C)NCC(O)c1ccc(NS(C)(=O)=O)cc1 (centres unmarked) [Sotalol hydrochloride]
Response: 0
